- Tested on: 439559-082-T-J2-PDC spheroid viability;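 also: spheroids exposed to compounds for seven days before readout; 100% = DMSO vehicle control viability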
- Assay notes: Anticancer human tumor 439559-082-T-J2-PDC patient-derived colon adenocarcinoma cell line growth inhibition [POLQ]
- Test settings: second compound 1 µM; first compound 0.1 µM; stronger effect = lower value; spheroids with HUVEC and MSC
Parameter measured: viability, T/C (%)
Field: numeric (%). Do not append units.

These solved cases illustrate the format of a correct answer.
Compound | Observed result
C#Cc1c(F)ccc2cc(O)cc(-c3ncc4c(N5CC6CCC(C5)N6)nc(OCC56CCCN5CC(F)C6)nc4c3F)c12 (stereo not given) + COC1C(OC(N)=O)C(O)C(Oc2ccc3c(O)c(NC(=O)c4ccc(O)c(CC=C(C)C)c4)c(=O)oc3c2C)OC1(C)C | 88
CNCc1ccc(-c2[nH]c3cc(F)cc4c3c2CCNC4=O)cc1 + Cc1cccc(N(C)C(=O)C2C(O)CCN2c2nc(C)cc(C(F)(F)F)c2C#N)c1 | 92.6
CC1COCCN1c1cc(-c2ccnn2C)c2ccnc(-c3ccn[nH]3)c2n1 (stereo not given) + COC1C(OC(N)=O)C(O)C(Oc2ccc3c(O)c(NC(=O)c4ccc(O)c(CC=C(C)C)c4)c(=O)oc3c2C)OC1(C)C | 75.2
CC1COCCN1c1cc(C2(O)CC3CCC(C2)O3)c2cnn(-c3ccn[nH]3)c2n1 (stereo not given) + COC1C(OC(N)=O)C(O)C(Oc2ccc3c(O)c(NC(=O)c4ccc(O)c(CC=C(C)C)c4)c(=O)oc3c2C)OC1(C)C | 89.5

viability, T/C for CCc1c2c(nc3ccc(O)cc13)-c1cc3c(c(=O)n1C2)COC(=O)[C@]3(O)CC + COC1C(OC(N)=O)C(O)C(Oc2ccc3c(O)c(NC(=O)c4ccc(O)c(CC=C(C)C)c4)c(=O)oc3c2C)OC1(C)C ?
63

Entry source: PubChem BioAssay AID1963841
